# Target entity: HIV-1 capsid protein (Human immunodeficiency virus type 1 group M subtype B)
# Construct: aqueous solutions containing recombinant, ^15N-labeled HIV-1 capsid protein
# Experiment: biochemical
# Assay type: binding
Measurement label: Kd (µM)
All answers are understood in µM, so give the number only.

Request: Consider the molecule Cc1ccc(NC(=O)NCCSCc2ccc(CN(C)C)o2)cc1Cl and give its measured Kd.
Result: 820
